Value source: patent US20100273979A1

Molecular target: mouse serum albumin (mouse), P07724
Sequence (P07724 25-608 limits assumed): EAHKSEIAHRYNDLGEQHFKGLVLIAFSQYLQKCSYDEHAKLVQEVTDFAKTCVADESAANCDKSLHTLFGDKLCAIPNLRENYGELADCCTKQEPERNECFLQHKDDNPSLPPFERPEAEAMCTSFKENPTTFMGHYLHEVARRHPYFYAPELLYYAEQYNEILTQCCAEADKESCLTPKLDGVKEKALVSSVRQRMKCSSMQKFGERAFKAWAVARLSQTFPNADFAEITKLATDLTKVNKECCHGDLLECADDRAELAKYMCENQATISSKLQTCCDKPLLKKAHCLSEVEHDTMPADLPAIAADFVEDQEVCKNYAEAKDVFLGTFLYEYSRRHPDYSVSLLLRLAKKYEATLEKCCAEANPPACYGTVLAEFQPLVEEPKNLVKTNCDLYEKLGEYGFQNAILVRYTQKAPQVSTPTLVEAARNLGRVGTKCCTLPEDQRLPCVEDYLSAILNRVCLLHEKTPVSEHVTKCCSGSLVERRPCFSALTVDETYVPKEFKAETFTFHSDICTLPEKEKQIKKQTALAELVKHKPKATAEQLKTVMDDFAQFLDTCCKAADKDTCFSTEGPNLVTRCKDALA
Assay: SPR (Biacore2000), MSA immobilised on CM-5, analyte injected at 25 nM; qualitative
pKd: −log10 of the molar value.
Value Type: pKd

1. LAEAKVLANRELDKYGVSDYYKNLINNAKTVEGVKALIDEILAALP (modifications not checked) ... 8.31
